These data points were gathered from PubChem BioAssay.

Target: Luciferin 4-monooxygenase (Photinus pyralis)
Assay: firefly luciferase enzyme inhibitors, primary screen, biochemical, luminescence, purified enzyme, 2006 set (AID 1141);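 also: cell-free assay with purified firefly luciferase at 100 ng per well in PBS; test concentration not given here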
Settings: SteadyGlo luminescence, 30 min, higher = more signal, called active from +8 up or from −8 down
property: z-score
Please reply with the value in numeric form only.

molecule	z-score
C=CC[C@]1(C(=O)OC)N=C(c2ccc(OCCCO)cc2)O[C@H]1c1ccccc1CN=[N+]=[N-]	-4.54
COC(=O)C1=C(C)N(Cc2ccccc2)c2c(C(=O)OC)c(C(=O)OC)c(C(=O)OC)c(=O)n2[C@@H]1c1ccccc1	-1.01

Query block: Form field: z-score recorded for CO[C@H]1COC(=O)[C@H](Cc2ccccc2)NC(=O)CC=C[C@@H](C)[C@H](OC)COC(=O)CC=C[C@@H]1C with Luciferin 4-monooxygenase (Photinus pyralis) (enter value)
Result block: -1.27

Query block: Form field: z-score recorded for CCCNC(=O)[C@@]1(Sc2ccc(C)cc2)CC(=O)N(Cc2ccccc2Cl)[C@@H]1c1ccc(CO)cc1 with Luciferin 4-monooxygenase (Photinus pyralis) (enter value)
Result block: -0.0629

Query block: Form field: z-score recorded for C=CCC(OC(C)=O)[C@@H]1[C@@H](N(Cc2cccc3ccccc23)C(=O)Cc2ccc(F)cc2)c2cc(OCCCO)ccc2N1C(=O)Cc1ccc2ccccc2c1 (some centres not stated) with Luciferin 4-monooxygenase (Photinus pyralis) (enter value)
Result block: 0.693

Query block: Form field: z-score recorded for Cc1ccc(S[C@]2(C(=O)NCCN3CCOCC3)CC(=O)N(C3Cc4ccccc4C3)[C@@H]2c2ccc(CO)cc2I)cc1 with Luciferin 4-monooxygenase (Photinus pyralis) (enter value)
Result block: -0.83

Query block: Form field: z-score recorded for O=C1O[C@H](c2ccccc2)[C@H](c2ccccc2)N2[C@H]1[C@@H](C(=O)Nc1nc3ccccc3s1)[C@]1(C(=O)Nc3ccc(C#CC4=CCCCC4)cc31)[C@H]2c1ccccc1OCCO with Luciferin 4-monooxygenase (Photinus pyralis) (enter value)
Result block: -1.01

----------
Test system: glycogen synthase kinase-3 (GSK3A per assay name; protocol says GSK3B)
Test: GSK3 binders on small-molecule microarrays, primary screen, biochemical, small-molecule microarray, 635 nm fluorescence, GSK3A (AID 1103); also: the record names both GSK3A and GSK3B
Conditions: small-molecule microarray binding, fluorescence 635 nm; higher = more signal
# reported composite z-score; entries follow
Please reply with the value in numeric form only.

Consider the reported composite z-score for these compounds:
compound	result
COc1ccc([Si](C)(C)[C@H]2[C@H](CCO)O[C@@]3(C(=O)N(Cc4ccccc4)c4ccc(N5C(=O)c6cccc7cccc5c67)cc43)[C@@H]2C)cc1	-0.636
Cc1ccc(S(=O)(=O)c2cc3oc2CC[C@@H](CO)NC(=O)N(C)Cc2cn(nn2)C[C@H](Cc2ccccc2)NC3=O)cc1	0.164
C[C@@H]1NC(=O)CC=C[C@@H](C)[C@@H]2C=C[C@H](O)[C@@H](COC(=O)[C@H](C)NC(=O)CC=C[C@@H](C)[C@@H]3C=C[C@H](O)[C@@H](COC1=O)O3)O2	0.217
COc1ccc([Si](C)(C)[C@H]2[C@H](CCO)O[C@@]3(C(=O)N(Cc4ccc(N5CCCCC5=O)cc4)c4ccccc43)[C@@H]2C)cc1	0.642
CO[C@H]1COC(=O)[C@@H](C)NC(=O)CC=C[C@@H](C)[C@H](OC)COC(=O)CC=C[C@@H]1C	0.442

Query block: Please report the recorded composite z-score for CCCC[C@@H]1C[C@H]1[C@@H](NC(=O)c1ccccc1)c1ccccc1C(F)(F)F .
Result block: 0.415

Query block: Please report the recorded composite z-score for CO[C@H]1COC(=O)[C@H](C)COC(=O)[C@H](Cc2ccccc2)NC(=O)CC=C[C@H]1C .
Result block: -0.232

Query block: Please report the recorded composite z-score for O=C1OCCC=C[C@H]2OC34C=CCN(Cc5ccccc5)C(=O)[C@H]3N(CCO)C(=O)[C@@H]4C12 (stereo not given in full) .
Result block: -0.958

Query block: Please report the recorded composite z-score for CCc1cccc(NC(=O)O[C@H]2[C@H](OC(=O)Nc3ccccc3)[C@@H](OC(=O)Nc3ccccc3)[C@@H](OC)O[C@@H]2CO)c1 .
Result block: 1.07

Query block: Please report the recorded composite z-score for CN(C)c1ccc(C(O)C2C=CC3C(=O)NC(=O)C3N2Nc2ccc(Cl)cc2Cl)cc1 (stereo not given) .
Result block: 0.121

Query block: Please report the recorded composite z-score for CCOC(=O)C[C@H]1[C@H](OC(=O)Cc2ccc3c(c2)OCO3)[C@@H](NC(=O)CC(C)C)c2cc(OCCCO)ccc2N1C(=O)c1ccccc1 .
Result block: 0.263

Query block: Please report the recorded composite z-score for CC(C)C[C@@H]1NC(=O)[C@H]2C[C@@H](C(=O)NCCCCCC[N+](C)(C)C)[C@@H](c3ccc(O)cc3)N2C1=O .
Result block: -0.595

Query block: Please report the recorded composite z-score for CC(C)(C)OC(=O)CC[C@]1(C(=O)NCCN2CCOCC2)N=C(c2ccc(OCCCO)cc2)O[C@H]1c1ccccc1CN=[N+]=[N-] .
Result block: 0.813

Query block: Please report the recorded composite z-score for CO[C@H]1COC(=O)CC=C[C@H](C)COC(=O)[C@@H](OCc2ccccc2)C=C[C@@H]1C .
Result block: 1.28

Query block: Please report the recorded composite z-score for C=C(CCCC)C(=O)CC[C@@H](OC(=O)c1cccnc1)c1cccc(OCCO)c1 .
Result block: 0.13
